Reference source: the PolyMetriX glass transition set

Parameter: glass transition temperature. Scope: all listed entries.
Assay endpoint: glass transition temperature (°C)

Compound: *C(=O)Nc1ccc(Cc2ccc(NC(=O)c3ccc4c(c3)C(=O)N(c3ccc(Oc5ccc(N6C(=O)c7ccc(*)cc7C6=O)cc5)cc3)C4=O)cc2)cc1 (repeat unit)
Measured: 270.00
//
Compound: *OC1C(CO)OC(*)C(O)C1O (repeat unit)
Measured: 332.00
//
Compound: *CC(*)C=C (repeat unit)
Measured: -6.08
//
Compound: */C=[CH]/[Ge](/[CH]=C/[Si](*)(c1ccccc1)c1ccccc1)([c]1ccccc1)[c]1ccccc1 (repeat unit)
Measured: 28.00
//
Compound: *CC(*)(C)C(=O)OCCCCCCCCOc1ccc2cc(C(=O)Oc3ccccc3)ccc2c1 (repeat unit)
Measured: 34.00

---

Binned glass transition temperature; ranges: bin 0 = under 50 °C, bin 1 = from 50 °C up to 300 °C, bin 2 = 300 °C and over

Compound: *Oc1ccc(CNC(=O)CCCCC(=O)NCc2ccc(OC3COC4C(*)COC34)cc2)cc1 (repeat unit)
Label value: bin 1
//
Compound: *C1C(=O)N(c2cc(Br)c(O[Si](CC)(CC)CC)c(Br)c2)C(=O)C1* (repeat unit)
Label value: bin 1
//
Compound: *CCN(*)C (repeat unit)
Label value: bin 0
//
Compound: *C(=O)c1ccc2c(c1)C(=O)N(c1ccc(-c3nc(-c4ccccc4)nc(-c4ccc(N5C(=O)c6ccc(*)cc6C5=O)cc4)n3)cc1)C2=O (repeat unit)
Label value: bin 2
//
Compound: *CC(O)COc1ccc(C(C)(C)c2ccc(OCC(O)COc3cccc(NC(=O)CCCC(=O)Nc4cccc(O*)c4)c3)cc2)cc1 (repeat unit)
Label value: bin 1
//
Compound: *CC(*)C(=O)OCCOCC1(CC)COC1 (repeat unit)
Label value: bin 0
//
Compound: *c1cc(C(=O)OCC)cc(N2C(=O)CC(C3Cc4ccccc4C4C(=O)N(*)C(=O)C43)C2=O)c1 (repeat unit)
Label value: bin 1
//
Compound: *c1ccc(Oc2ccc(C(=O)c3ccc(Oc4ccc(-c5nnc(*)c6c(-c7ccccc7)c(-c7ccc8ccccc8c7)c(-c7ccc8ccccc8c7)c(-c7ccccc7)c56)cc4)cc3)cc2)cc1 (repeat unit)
Label value: bin 2
//
Compound: *NC(CCC(=O)OCc1ccc([N+](=O)[O-])cc1)C(*)=O (repeat unit)
Label value: bin 1
//
Compound: *CC(*)C(=O)Oc1ccc(Cl)cc1 (repeat unit)
Label value: bin 2
//
Compound: *CCCCCCOC(=O)OCCCCCOC(=O)OCCCCCCOc1ccc(Oc2ccc(O*)cc2)cc1 (repeat unit)
Label value: bin 0
//
Compound: *Oc1ccc(-c2ccc(Oc3ccc(C(=O)c4c(C(=O)c5ccc(*)cc5)c(-c5ccccc5)c(-c5ccc6ccccc6c5)c(-c5ccc6ccccc6c5)c4-c4ccccc4)cc3)cc2)cc1 (repeat unit)
Label value: bin 1
//
Compound: *c1cccc(C(=O)Nc2ccc(Oc3ccc(Oc4ccc(Oc5ccc(NC(=O)c6cccc(N7C(=O)c8ccc(-c9ccc%10c(c9)C(=O)N(*)C%10=O)cc8C7=O)c6)cc5)cc4)cc3)cc2)c1 (repeat unit)
Label value: bin 1

---

Molecule: *CCCCCCOC(=O)C(CCCCP(=O)(O)O)C(=O)OCCCCCCOc1ccc(-n2on2-c2ccc(O*)cc2)cc1 (repeat unit)
glass transition temperature: 19.00 °C

Molecule: *CCCCCCCCCCN/C(=N/*)c1ccccc1 (repeat unit)
glass transition temperature: 10.00 °C

Molecule: *CNC(=O)CCCCCCCCC(=O)NCC1COC(*)CO1 (repeat unit)
glass transition temperature: 73.00 °C

Molecule: *c1ccc2c(c1)C(=O)N(c1ccc(OC(C)COc3ccc(N4C(=O)c5ccc(C(*)(C(F)(F)F)C(F)(F)F)cc5C4=O)cc3)cc1)C2=O (repeat unit)
glass transition temperature: 234.00 °C

Molecule: *Nc1cccc(NC(=O)c2ccc(C(=O)Nc3ccc(C(=O)NC(*)=S)cc3)cc2)c1 (repeat unit)
glass transition temperature: 273.00 °C

Molecule: *CCCCCCCCCCOC(=O)NCCCCCCNC(=O)O* (repeat unit)
glass transition temperature: 55.00 °C

Molecule: *Oc1ccc(OC(=O)c2cccc(Sc3ccc(OC(=O)c4ccc(C(=O)Oc5ccc(Sc6cccc(C(*)=O)c6)cc5)cc4)cc3)c2)cc1C (repeat unit)
glass transition temperature: 106.50 °C

Molecule: *Oc1ccc(Cc2ccc(OC(*)=O)cc2)cc1 (repeat unit)
glass transition temperature: 133.50 °C

Molecule: *Nc1ccc(Cc2ccc(NC(=O)c3cc(NC(=O)CCN4C(=O)c5ccccc5C4=O)cc(C(*)=O)c3)cc2)cc1 (repeat unit)
glass transition temperature: 235.00 °C

Molecule: *CCc1ccc(*)s1 (repeat unit)
glass transition temperature: 26.00 °C

Molecule: *CC(*)(C)C(=O)OCSC (repeat unit)
glass transition temperature: 60.00 °C

Molecule: *c1ccc(-c2nc3cc(S(=O)(=O)c4ccc5nc(-c6ccccc6)c(*)nc5c4)ccc3nc2-c2ccccc2)cc1 (repeat unit)
glass transition temperature: 345.00 °C

Molecule: *CC(*)c1cc(C(=O)OCCCCCCCCCC)ccc1-c1ccc(OCCCCCCCC)cc1 (repeat unit)
glass transition temperature: 44.00 °C

Molecule: *CC(*)(C)C(=O)OCC1CC(NC(=O)C2CC(NC(=O)OC(C)(C)C)CN2C(=O)OC(C)(C)C)CN1C(=O)C1CC(NC(=O)OC(C)(C)C)CN1C(=O)OC(C)(C)C (repeat unit)
glass transition temperature: 200.00 °C

Molecule: *CC(O)COc1ccc(C(C)(C)c2ccc(OCC(O)COc3cccc(NC(=O)CCCCCCCCCCC(=O)Nc4cccc(O*)c4)c3)cc2)cc1 (repeat unit)
glass transition temperature: 90.00 °C

Molecule: *C(=O)Nc1ccc(Oc2cccc(Oc3ccc(NC(=O)c4ccc5c(c4)C(=O)N(c4cccc(Oc6cccc(Oc7cccc(N8C(=O)c9ccc(*)cc9C8=O)c7)c6C#N)c4)C5=O)cc3)c2)cc1 (repeat unit)
glass transition temperature: 207.00 °C

Molecule: *NNC(=O)c1ccc(C(*)=O)cc1OCCCCCCCCCC (repeat unit)
glass transition temperature: 193.00 °C

Molecule: *c1ccc(-c2nnc(*)o2)c(OCCCCCCCC)c1 (repeat unit)
glass transition temperature: 173.00 °C

Molecule: *C(=O)Nc1c(C)cc(Cc2cc(C)c(NC(=O)c3ccc4c(c3)C(=O)N(c3ccc(/N=N/c5ccc(F)cc5)c(N5C(=O)c6ccc(*)cc6C5=O)c3)C4=O)c(C)c2)cc1C (repeat unit)
glass transition temperature: 279.00 °C

Molecule: *c1ccc2c(c1)C(=O)N(c1c(C)cc(C)c(N3C(=O)c4ccc(C(*)(C(F)(F)F)C(F)(F)F)cc4C3=O)c1C)C2=O (repeat unit)
glass transition temperature: 377.00 °C

Molecule: *CC(C)(C)COC(=O)NC(=O)c1ccc(C(=O)NC(=O)O*)cc1 (repeat unit)
glass transition temperature: 102.00 °C

Molecule: *c1ccc(C(=O)Nc2ccc(-c3nnc(*)o3)cc2)c(Oc2ccccc2)c1 (repeat unit)
glass transition temperature: 235.00 °C

Molecule: *CC(*)c1ccc(C(=O)OCC)cc1 (repeat unit)
glass transition temperature: 94.00 °C

Molecule: *CC(*)c1c(C)cc(C)cc1C (repeat unit)
glass transition temperature: 126.00 °C

Molecule: *Oc1ccc(C(c2ccccc2)(c2ccccc2)c2ccc(Oc3ccc(C(=O)Nc4ccc(NC(=O)c5ccc(*)cc5)cc4)cc3)cc2)cc1 (repeat unit)
glass transition temperature: 254.00 °C

Molecule: *Oc1ccc(Oc2ccc(C(=O)c3ccc(C(=O)c4ccc(*)cc4)cc3)cc2)cc1-c1cccc(C)c1 (repeat unit)
glass transition temperature: 159.00 °C

Molecule: *Oc1ccc(-c2ccc(-c3ccc(Oc4ccc(C(c5ccc(*)cc5)(C(F)(F)F)C(F)(F)F)cc4)c(C(F)(F)F)c3)cc2)cc1C(F)(F)F (repeat unit)
glass transition temperature: 207.50 °C

Molecule: *C(=O)OCCOCCOCCOCCOC(=O)c1ccc(N2C(=O)c3ccc(*)cc3C2=O)cc1 (repeat unit)
glass transition temperature: 52.00 °C

Molecule: *C(=O)c1ccc2c(c1)C(=O)N(c1cccc(P(=O)(c3ccc(Oc4ccc(C56CC7CC(CC(C7)C5)C6)cc4)cc3)c3cccc(N4C(=O)c5ccc(*)cc5C4=O)c3)c1)C2=O (repeat unit)
glass transition temperature: 305.00 °C

Molecule: *Nc1ccc(NC(=O)Cc2cc(C)c(CC(*)=O)cc2C)cc1 (repeat unit)
glass transition temperature: 175.00 °C

---

Parameter: glass transition temperature. Scope: all listed entries.
Assay endpoint: glass transition temperature (°C)

Compound: *c1ccccc1CCc1ccc(N2C(=O)C(=O)N(c3ccc(C)c(N4C(=O)C(=O)N(*)C4=O)c3)C2=O)cc1 (repeat unit)
Measured: 255.00

Compound: *CC(*)(CC(=O)OC1CCCCCCC1)C(=O)OC1CCCCCCC1 (repeat unit)
Measured: 124.00

Compound: *CC(*)C(=O)OCCOCC (repeat unit)
Measured: -50.00

Compound: *C(=O)c1ccc2c(c1)C(=O)N(c1ccc(Cc3ccc(N4C(=O)c5ccc(*)cc5C4=O)c(C(C)(C)C)c3)cc1C(C)(C)C)C2=O (repeat unit)
Measured: 213.00

Compound: *CCOC(=O)CCCCC(=O)O* (repeat unit) [Poly(ethylene adipate)]
Measured: -48.83
